Kindly supply the reported degree of damage to the plants, Amaranthus values for the records listed here.
- Tested on: Amaranthus
- assay.overview: Pre-emergence test/greenhouse
- Format: in vivo
- condition.set: greenhouse, application rate 15 gai/ha, rated after three weeks, 0%=no effect, 100%=total destruction
- Description: • Solvent: 5 parts by weight of acetone • Emulsifier: 1 part by weight of alkylaryl polyglycol ether To produce a suitable preparation of active compound, 1 part by weight of active compound is mixed with the stated amount of solvent, the stated amount of emulsifier is added and the concetrate is diluted with water to the desired concentration. Seeds of the test plants are sown in normal soil. […]
Answer with a number only, understood to be in %.

Prompt line: Please look at this compound and report its degree of damage to the plants, Amaranthus: CCCOc1nn(C(=O)NS(=O)(=O)c2c(C(=O)OC)csc2C)c(=O)n1C1CC1 [(B), reference compound]
Response line: 80

Prompt line: Using known records, supply degree of damage to the plants, Amaranthus for CCOn1c(CC)nn(C(=O)NS(=O)(=O)c2c(C(=O)OC)csc2C)c1=O [Example 39]
Response line: 100

Prompt line: Find the measured degree of damage to the plants, Amaranthus of COCc1nn(C(=O)NS(=O)(=O)c2c(C(=O)OC)csc2C)c(=O)n1C1CC1 [Example 45] and report it.
Response line: 100

Prompt line: Assign degree of damage to the plants, Amaranthus to the following record: CCc1nn(C(=O)NS(=O)(=O)c2c(C(=O)OC)csc2C)c(=O)n1C [(F), reference compound]
Response line: 40

Prompt line: Using the record for CCSc1nn(C(=O)NS(=O)(=O)c2c(C(=O)OC)csc2C)c(=O)n1C [Example 20] , state its measured degree of damage to the plants, Amaranthus.
Response line: 95

Prompt line: Write down degree of damage to the plants, Amaranthus measured for item COCc1nn(C(=O)NS(=O)(=O)c2c(C(=O)OC)csc2C)c(=O)n1C [Example 18]
Response line: 95

Prompt line: Name the recorded degree of damage to the plants, Amaranthus of the item COC(=O)c1csc(C)c1S(=O)(=O)NC(=O)n1nc(C2CC2)n(C2CC2)c1=O [(D), reference compound] in your answer.
Response line: 80

Prompt line: Provide one value: measured degree of damage to the plants, Amaranthus of CCOc1nn(C(=O)NS(=O)(=O)c2c(C(=O)OC)csc2C)c(=O)n1CC [Example 38]
Response line: 100

Prompt line: Specify degree of damage to the plants, Amaranthus for COC(=O)c1csc(C)c1S(=O)(=O)NC(=O)n1nc(OCC(F)(F)F)n(C2CC2)c1=O [Example 43] and stop.
Response line: 100

Prompt line: Give reported degree of damage to the plants, Amaranthus value for CCCc1nn(C(=O)NS(=O)(=O)c2c(C(=O)OC)csc2C)c(=O)n1C1CC1 [Example 48]
Response line: 100

Prompt line: Respond only with degree of damage to the plants, Amaranthus recorded for COC(=O)c1csc(C)c1S(=O)(=O)NC(=O)n1nc(OC(C)C)n(C2CC2)c1=O [(C), reference compound]
Response line: 80

Prompt line: Retrieve degree of damage to the plants, Amaranthus measured for CCOC(=O)c1csc(C)c1S(=O)(=O)NC(=O)n1nc(OC)n(C)c1=O [Example 1] and print it.
Response line: 100

Prompt line: Annotate the compound CCc1nn(C(=O)NS(=O)(=O)c2c(C(=O)OC)csc2C)c(=O)n1C1CC1 [Example 47] with its measured degree of damage to the plants, Amaranthus.
Response line: 100

Prompt line: Answer with reported degree of damage to the plants, Amaranthus of CCOC(=O)c1csc(C)c1S(=O)(=O)NC(=O)n1nc(OC)n(C2CC2)c1=O [Example 56]
Response line: 100

----------
- System: Digitaria
- assay.overview: Pre-emergence test/greenhouse
- Type: in vivo
- condition.set: greenhouse, application rate 15 gai/ha, rated after three weeks, 0%=no effect, 100%=total destruction
quantity: degree of damage to the plants, Digitaria (%)
Write the answer as a number in %, unit excluded.

Prompt line: Provide only the value of recorded degree of damage to the plants, Digitaria for CCCOc1nn(C(=O)NS(=O)(=O)c2c(C(=O)OC)csc2C)c(=O)n1C1CC1 [(B), reference compound]
Response line: 0

Prompt line: Give the reported value of degree of damage to the plants, Digitaria for this record: COC(=O)c1csc(C)c1S(=O)(=O)NC(=O)n1nc(OC(C)C)n(C2CC2)c1=O [(C), reference compound]
Response line: 20

Prompt line: Recall and state the measured degree of damage to the plants, Digitaria for CCCOc1nn(C(=O)NS(=O)(=O)c2c(C(=O)OC)csc2C)c(=O)n1C [(A), reference compound] .
Response line: 0

Prompt line: Note down degree of damage to the plants, Digitaria recorded for COC(=O)c1csc(C)c1S(=O)(=O)NC(=O)n1nc(C)n(C)c1=O [(E), reference compound]
Response line: 0

Prompt line: Recall and state the measured degree of damage to the plants, Digitaria for CCc1nn(C(=O)NS(=O)(=O)c2c(C(=O)OC)csc2C)c(=O)n1C [(F), reference compound] .
Response line: 60

Prompt line: Look up and state reported degree of damage to the plants, Digitaria for COC(=O)c1csc(C)c1S(=O)(=O)NC(=O)n1nc(C2CC2)n(C2CC2)c1=O [(D), reference compound]
Response line: 20

Prompt line: Provide only the value of recorded degree of damage to the plants, Digitaria for CCOn1c(CC)nn(C(=O)NS(=O)(=O)c2c(C(=O)OC)csc2C)c1=O [Example 39]
Response line: 100

Prompt line: Supply measured degree of damage to the plants, Digitaria of COC(=O)c1csc(C)c1S(=O)(=O)NC(=O)n1nc(SC)n(C)c1=O [(G), reference compound] in your reply.
Response line: 50

----------
- Tested on: Amaranthus
- assay.overview: Pre-emergence test/greenhouse
- Assay type: in vivo
- condition.set: greenhouse, application rate 15 gai/ha, rated after three weeks, 0%=no effect, 100%=total destruction
quantity: degree of damage to the plants, Amaranthus (%)
Report only the number, with the unit % understood.

Prompt line: Enter recorded degree of damage to the plants, Amaranthus with Amaranthus for COC(=O)c1csc(C)c1S(=O)(=O)NC(=O)n1nc(SC)n(C)c1=O [(G), reference compound] here.
Response line: 40

Prompt line: Print Amaranthus degree of damage to the plants, Amaranthus for COC(=O)c1csc(C)c1S(=O)(=O)NC(=O)n1nc(C)n(C)c1=O [(E), reference compound] .
Response line: 10

Prompt line: Report measured degree of damage to the plants, Amaranthus on Amaranthus; entry: "CCCc1nn(C(=O)NS(=O)(=O)c2c(C(=O)OC)csc2C)c(=O)n1OC"
Response line: 100

Prompt line: Specify degree of damage to the plants, Amaranthus for "COC(=O)c1csc(C)c1S(=O)(=O)NC(=O)n1nc(OCC(F)(F)F)n(C)c1=O" , system Amaranthus.
Response line: 100

----------
- System: Viola
- assay.overview: Post-emergence test/greenhouse
- Assay type: in vivo
- condition.set: greenhouse, application rate 15 gai/ha, rated after three weeks, 0%=no effect, 100%=total destruction
Please go through the items and note down their degree of damage to the plants, Viola.
Report only the number, with the unit % understood.

Prompt line: Item "CCc1nn(C(=O)NS(=O)(=O)c2c(C(=O)OC)csc2C)c(=O)n1C1CC1" : provide degree of damage to the plants, Viola
Response line: 100

Prompt line: Specify measured degree of damage to the plants, Viola for "CCSc1nn(C(=O)NS(=O)(=O)c2c(C(=O)OC)csc2C)c(=O)n1C" .
Response line: 100

Prompt line: Write down degree of damage to the plants, Viola measured for item "CCCc1nn(C(=O)NS(=O)(=O)c2c(C(=O)OC)csc2C)c(=O)n1C1CC1"
Response line: 95

Prompt line: Specify measured degree of damage to the plants, Viola for "CCOC(=O)c1csc(C)c1S(=O)(=O)NC(=O)n1nc(OC)n(C2CC2)c1=O" .
Response line: 95

Prompt line: Please list degree of damage to the plants, Viola recorded for the compound CCCOc1nn(C(=O)NS(=O)(=O)c2c(C(=O)OC)csc2C)c(=O)n1C [(A), reference compound]
Response line: 30

Prompt line: Return reported degree of damage to the plants, Viola. Input compound: "CCOC(=O)c1csc(C)c1S(=O)(=O)NC(=O)n1nc(OC)n(C)c1=O"
Response line: 95

----------
- Tested on: Solanum
- assay.overview: Pre-emergence test/greenhouse
- Type: in vivo
- condition.set: greenhouse, application rate 15 gai/ha, rated after three weeks, 0%=no effect, 100%=total destruction
quantity: degree of damage to the plants, Solanum

Prompt line: Specify measured degree of damage to the plants, Solanum for CCOC(=O)c1csc(C)c1S(=O)(=O)NC(=O)n1nc(OC)n(C)c1=O [Example 1] .
Response line: 100%

Prompt line: Write down degree of damage to the plants, Solanum measured for item CCOC(=O)c1csc(C)c1S(=O)(=O)NC(=O)n1nc(OC)n(C2CC2)c1=O [Example 56]
Response line: 100%

Prompt line: Look up and state reported degree of damage to the plants, Solanum for COC(=O)c1csc(C)c1S(=O)(=O)NC(=O)n1nc(C2CC2)n(C)c1=O [Example 22]
Response line: 100%

Prompt line: Specify measured degree of damage to the plants, Solanum for CCOc1nn(C(=O)NS(=O)(=O)c2c(C(=O)OC)csc2C)c(=O)n1CC [Example 38] .
Response line: 100%

Prompt line: Assign degree of damage to the plants, Solanum to the following record: CCCOc1nn(C(=O)NS(=O)(=O)c2c(C(=O)OC)csc2C)c(=O)n1C [(A), reference compound]
Response line: 80%

Prompt line: Return the recorded degree of damage to the plants, Solanum value; entry: CCCc1nn(C(=O)NS(=O)(=O)c2c(C(=O)OC)csc2C)c(=O)n1C [Example 15]
Response line: 95%

Prompt line: Determine its reported degree of damage to the plants, Solanum: CCc1nn(C(=O)NS(=O)(=O)c2c(C(=O)OC)csc2C)c(=O)n1C [(F), reference compound]
Response line: 80%

Prompt line: Return degree of damage to the plants, Solanum for the following compound: CCOC(=O)c1csc(C)c1S(=O)(=O)NC(=O)n1nc(OCC)n(C)c1=O [Example 55]
Response line: 100%

Prompt line: Entry COC(=O)c1csc(C)c1S(=O)(=O)NC(=O)n1nc(C2CC2)n(C2CC2)c1=O [(D), reference compound] needs its degree of damage to the plants, Solanum filled in; supply it.
Response line: 80%

Prompt line: Specify reported degree of damage to the plants, Solanum for the compound shown: CCOn1c(CC)nn(C(=O)NS(=O)(=O)c2c(C(=O)OC)csc2C)c1=O [Example 39]
Response line: 95%

Prompt line: Determine from records and report degree of damage to the plants, Solanum for COC(=O)c1csc(C)c1S(=O)(=O)NC(=O)n1nc(OCC(F)(F)F)n(C)c1=O [Example 41]
Response line: 100%
